# Tested on: Plasmopara viticola
# EXPERIMENTAL PROTOCOL: Plasmopara test (grapevines)/preventive
# Format: in vivo
# DETAILS: preventive spray, 10 ppm of active ingredient, evaluated 6 days after inoculation, 0% = untreated control, 100% = no disease
ASSAY READOUT: Eff. % (%)
Write the answer as a number in %, unit excluded.

Data request: So what's the measured Eff. % for this one? Cc1nnnn1C(=NOCc1csc(NC(=O)C(C)OCC2CC2)n1)c1ccccc1 (stereo not shown)
Data returned: 94

Data request: // returns reported Eff. % for input CC(SC1CCCCC1)C(=O)Nc1nc(CON=C(c2ccccc2)c2nnnn2C)cs1 (stereo not shown)
Data returned: 82

Data request: May I ask what Eff. % has been recorded for Cc1ccccc1CSCC(=O)Nc1nc(CON=C(c2ccccc2)n2nnnc2C)cs1 ?
Data returned: 84

Data request: Sample Cc1ccccc1CSCC(=O)Nc1cccc(CON=C(c2ccccc2)c2nnnn2C)n1 — what was its Eff. %?
Data returned: 84

====

Measured Log P, listed per entry for reference.
# EXPERIMENTAL PROTOCOL: Measurement of logP values by HPLC on reversed phase columns (EEC directive 79/831 Annex V.A8)
# Format: physicochemical
# DETAILS: pH 2.7, 0.1% formic acid in water / acetonitrile gradient, calibration with alkan-2-ones
Quick one: just the number, no unit, thanks!

Data request: // lookup Log P for Cn1nnnc1C(=NOCc1cccc(NC(=O)COCC2CCCC2)n1)c1ccccc1 [Example 5]
Data returned: 4.24

Data request: # get_value(readout='Log P', item= COC(C)CC(CC(=O)Nc1nc(CON=C(c2ccccc2)c2nnnn2C)cs1)OC (centres unmarked) [Example 103] )
Data returned: 2.78

Data request: Dear colleague, I am looking for the recorded Log P of the following compound: CC(OCC1CCCCC1)C(=O)Nc1nc(CON=C(c2ccccc2)c2nnnn2C)cs1 (centres unmarked) [Example 18]
Data returned: 4.64

Data request: Requested field: Log P. Item: Cc1nnnn1C(=NOCc1csc(NC(=O)CSCc2ccccc2)n1)c1ccccc1 [Example 86]
Data returned: 3.57

Data request: Log P for Cn1nnnc1C(=NOCc1csc(NC(=O)C2CC2c2ncc(C(F)(F)F)cc2Cl)n1)c1ccccc1 (centres unmarked) [Example 93] ?
Data returned: 4.37

Data request: // Log P lookup, key: Cn1nnnc1C(=NOCc1csc(NC(=O)COCC2CCCCO2)n1)c1ccccc1 (centres unmarked) [Example 57]
Data returned: 3.25

Data request: I have this compound here, CC(OCC(=O)Nc1nc(CON=C(c2ccccc2)c2nnnn2C)cs1)c1ccccc1 (centres unmarked) [Example 105] , and I need its recorded Log P.
Data returned: 3.7

Data request: I am curious: what Log P value has been reported for Cn1nnnc1C(=NOCc1cccc(NC(=O)CCSCc2ccc(F)cc2)n1)c1ccccc1 [Example 100] ?
Data returned: 3.87

====

# EXPERIMENTAL PROTOCOL: Measurement of logP values by HPLC on reversed phase columns (EEC directive 79/831 Annex V.A8)
# Assay type: physicochemical
# DETAILS: pH 2.7, 0.1% formic acid in water / acetonitrile gradient, calibration with alkan-2-ones
ASSAY READOUT: Log P

Example results:
INSERT INTO assay_data (compound, endpoint_value) VALUES
  ('CC(COCc1ccccc1)C(=O)Nc1cccc(CON=C(c2ccccc2)c2nnnn2C)n1 (centres unmarked)', 3.85),
  ('CC(OCC1CCC1)C(=O)Nc1cccc(CON=C(c2ccccc2)c2nnnn2C)n1 (centres unmarked)', 4.16),
  ('CC(OCC1CCCC1)C(=O)Nc1cccc(CON=C(c2ccccc2)c2nnnn2C)n1 (centres unmarked)', 4.59);

Next up:
Data request: # input compound: COC(C)CC(CC(=O)Nc1cccc(CON=C(c2ccccc2)c2nnnn2C)n1)OC (centres unmarked) ; wanted: its Log P
Data returned: 2.9

====

# EXPERIMENTAL PROTOCOL: Measurement of logP values by HPLC on reversed phase columns (EEC directive 79/831 Annex V.A8)
# Assay type: physicochemical
# DETAILS: pH 2.7, 0.1% formic acid in water / acetonitrile gradient, calibration with alkan-2-ones
# key: entry, value: Log P
Respond using a number only.

Data request: Dear colleague, I am looking for the recorded Log P of the following molecule: Cc1nnnn1C(=NOCc1csc(NC(=O)CSC2CCCC2)n1)c1ccccc1
Data returned: 3.65

Data request: Please report the recorded Log P for Cc1ccccc1CSCC(=O)Nc1cccc(CON=C(c2ccccc2)n2nnnc2C)n1 .
Data returned: 4.06

Data request: Look up Log P for this molecule: Cc1nnnn1C(=NOCc1csc(NC(=O)COCCC(C)C)n1)c1ccccc1
Data returned: 3.87

Data request: State the recorded Log P for this entry: CC(OCc1ccccc1)C(=O)Nc1cccc(CON=C(c2ccccc2)c2nnnn2C)n1 (stereo not drawn)
Data returned: 3.92

Data request: Please report the recorded Log P for Cc1nnnn1C(=NOCc1cccc(NC(=O)C(C)(C)CSC2CCCCC2)n1)c1ccccc1 .
Data returned: 5.08

Data request: Reported Log P, molecule Cc1nnnn1C(=NOCc1cccc(NC(=O)COCCC2CCCC2)n1)c1ccccc1 : ____
Data returned: 4.73

====

# System: Plasmopara viticola
# EXPERIMENTAL PROTOCOL: Plasmopara test (grapevines)/preventive
# Type: in vivo
# DETAILS: preventive spray, 10 ppm of active ingredient, evaluated 6 days after inoculation, 0% = untreated control, 100% = no disease
ASSAY READOUT: Eff. % (%)
Hi! Could you send only the number? It should be in %, unit omitted.

The following molecules have reported results that may help.
INSERT INTO assay_data (molecule, assay_readout, unit_symbol, endpoint_value) VALUES
  ('Cc1nnnn1C(=NOCc1cccc(NC(=O)C(C)OCC2CC2)n1)c1ccccc1 (stereo not shown) [Example 24]', 'Eff. %', '%', 81),
  ('Cn1nnnc1C(=NOCc1cccc(NC(=O)OCCCOC2CCCC2)n1)c1ccccc1 [Example 98]', 'Eff. %', '%', 81),
  ('CC(OCC1CCC1)C(=O)Nc1nc(CON=C(c2ccccc2)c2nnnn2C)cs1 (stereo not shown) [Example 22]', 'Eff. %', '%', 88);

Consider the additional molecule presented here.
Data request: Please give the measured Eff. % for this molecule: Cn1nnnc1C(=NOCc1csc(NC(=O)COCC2CCCCC2)n1)c1ccccc1 [Example 17]
Data returned: 94

====

# Test system: Plasmopara viticola
# EXPERIMENTAL PROTOCOL: Plasmopara test (grapevines)/preventive
# Type: in vivo
# DETAILS: preventive spray, 10 ppm of active ingredient, evaluated 6 days after inoculation, 0% = untreated control, 100% = no disease
This listing pairs compounds with measured Eff. %.
Your answer is read as %, so omit the unit and give the number.

Previously resolved entries follow.
INSERT INTO assay_data (compound, unit_symbol, endpoint_value) VALUES
  ('CC(OCC1CC1)C(=O)Nc1nc(CON=C(c2ccccc2)c2nnnn2C)cs1 (centres unmarked) [Example 14]', '%', 97),
  ('Cc1nnnn1C(=NOCc1csc(NC(=O)C(C)OCC2CCC2)n1)c1ccccc1 (centres unmarked) [Example 42]', '%', 93),
  ('Cn1nnnc1C(=NOCc1cccc(NC(=O)C2Cc3ccccc32)n1)c1ccccc1 (centres unmarked) [Example 91]', '%', 77);

Data request: // returns reported Eff. % for input CC(OCC1CC1)C(=O)Nc1ccc(F)c(CON=C(c2ccccc2)c2nnnn2C)n1 (centres unmarked) [Example 9]
Data returned: 89

Data request: Looking for the measured Eff. % of CC(OCC1CC1)C(=O)Nc1cccc(CON=C(c2ccccc2)c2nnnn2C)n1 (centres unmarked) [Example 2] , can you help?
Data returned: 95

Data request: Please give the measured Eff. % for this compound: CC(OCC1CCCC1)C(=O)Nc1nc(CON=C(c2ccccc2)c2nnnn2C)cs1 (centres unmarked) [Example 19]
Data returned: 91

Data request: For the compound shown here, COC(C)CC(CC(=O)Nc1cccc(CON=C(c2ccccc2)c2nnnn2C)n1)OC (centres unmarked) [Example 96] , give the reported Eff. %.
Data returned: 78

Data request: Name the recorded Eff. % for CC(SCc1ccccc1)C(=O)Nc1nc(CON=C(c2ccccc2)c2nnnn2C)cs1 (centres unmarked) [Example 71] .
Data returned: 82

====

# Tested on: Pythium ultimum
# EXPERIMENTAL PROTOCOL: Pythium test (cotton)/seed treatment
# Format: in vivo
# DETAILS: 50 g/dt seed of active ingredient, greenhouse 7 days, 100% = all seedlings have emerged
ASSAY READOUT: Eff. % (%)
Please reply with the bare figure in % and do not write the unit itself.

INSERT INTO assay_data (compound, unit_symbol, endpoint_value) VALUES
  ('Cn1nnnc1C(=NOCc1csc(NC(=O)COCc2ccccc2)n1)c1ccccc1 [Example 50]', '%', 93),
  ('CC(OCC1CC1)C(=O)Nc1nc(CON=C(c2ccccc2)c2nnnn2C)cs1 (stereo not shown) [Example 14]', '%', 100),
  ('CC(OCC1CC1)C(=O)Nc1cccc(CON=C(c2ccccc2)c2nnnn2C)n1 (stereo not shown) [Example 2]', '%', 100);

Data request: API: value(readout= Eff. %, system= Pythium ultimum, query= Cc1nnnn1C(=NOCc1csc(NC(=O)C(C)OCC2CC2)n1)c1ccccc1 (stereo not shown) [Example 34] )
Data returned: 92
